All figures here come from paper PMC6132577.

system: ntd-HSP90 mutant A101C/N105C tagged with CLaNP-5 (Homo sapiens, UniProt P07900, A101C/N105C)
Construct: Three double cysteine mutants of the ntd-HSP90 were designed on the surface of the protein; CLaNP-5 (chemical lanthanoid chelate with Lu3+ or Yb3+, attached to the two engineered Cys); made in house
assay.explanation: NMR methyl 13C-1H HSQC titration fitted with TITAN, 1:1 binding model
condition: mutant 101C/105C; single value used to extrapolate CSP; read-out: KD used for the calculation of the 100% bound state CSP
measurement.kind: Kd (µM)
Please give a number only; it is taken to be in µM.

Q: Please look up its Kd: `Nc1nccc(-c2ccccc2F)n1`
Ans: 150

###

system: ntd-HSP90 mutant T149C/I187C tagged with CLaNP-5 (Homo sapiens, UniProt P07900, I187C/T149C)
Construct: Three double cysteine mutants of the ntd-HSP90 were designed on the surface of the protein; CLaNP-5 (chemical lanthanoid chelate with Lu3+ or Yb3+, attached to the two engineered Cys); made in house
assay.explanation: NMR methyl 13C-1H HSQC titration fitted with TITAN, 1:1 binding model
condition: mutant 149C/187C; single value used to extrapolate CSP; read-out: KD used to extrapolate the CSP
measurement.kind: Kd (µM)
Express your answer in µM, writing the number without its unit.

Q: Endpoint output: Kd of `Nc1nccc(-c2ccccc2F)n1` . Value?
Ans: 50

###

system: UniProt:P07900
measurement.kind: Kd

Q: Return reported Kd; argument: `Nc1nccc(-c2ccccc2F)n1`
Ans: 160 to 220 µM
